# Test system: U251 human glioblastoma cell line
# experimentalDetails: in vitro FM-HCR assay of MGMT activity (mPlum O^6MeG reporter plasmid)
# Format: cell-based
# assayContext: 0.1% DMSO; U251 cells; flow cytometry 24 h after transfection; damaged/undamaged reporter; inversely related to MGMT activity
readout: Reporter expression (%) mean, DMSO

S159F: MGMT polypeptide with mutation S159F (protein) MDKDCEMKRTTLDSPLGKLELSGCEQGLHEIKLLGKGTSAADAVEVPAPAAVLGGPEPLMQCTAWLNAYFHQPEAIEEFPVPALHHPVFQQESFTRQVLWKLLKVVKFGEVISYQQLAALAGNPKAARAVGGAMRGNPVPILIPCHRVVCSSGAVGNYFGGLAVKEWLLAHEGHRLGKPGLGGSSGLAGAWLKGAGATSGSPPAGRN
23.0%

Req: Which Reporter expression (%) mean, DMSO reading was recorded for the molecule M134V: MGMT polypeptide with mutation M134V (protein) MDKDCEMKRTTLDSPLGKLELSGCEQGLHEIKLLGKGTSAADAVEVPAPAAVLGGPEPLMQCTAWLNAYFHQPEAIEEFPVPALHHPVFQQESFTRQVLWKLLKVVKFGEVISYQQLAALAGNPKAARAVGGAVRGNPVPILIPCHRVVCSSGAVGNYSGGLAVKEWLLAHEGHRLGKPGLGGSSGLAGAWLKGAGATSGSPPAGRN ?
Resp: 17.8%
